Catalogue of pKi readings, one per entry.
biological target: human GCGR (Homo sapiens, UniProt P47871); assay: Cellular functional assay, cAMP readout (glucagon-stimulated cAMP, LANCE TR-FRET); conditions: HEK293 cells stably expressing full-length human GCGR; glucagon 100 pM; IC50 converted to Ki; read-out: Inhibition of cAMP Ki
Sequence (P47871 26-477): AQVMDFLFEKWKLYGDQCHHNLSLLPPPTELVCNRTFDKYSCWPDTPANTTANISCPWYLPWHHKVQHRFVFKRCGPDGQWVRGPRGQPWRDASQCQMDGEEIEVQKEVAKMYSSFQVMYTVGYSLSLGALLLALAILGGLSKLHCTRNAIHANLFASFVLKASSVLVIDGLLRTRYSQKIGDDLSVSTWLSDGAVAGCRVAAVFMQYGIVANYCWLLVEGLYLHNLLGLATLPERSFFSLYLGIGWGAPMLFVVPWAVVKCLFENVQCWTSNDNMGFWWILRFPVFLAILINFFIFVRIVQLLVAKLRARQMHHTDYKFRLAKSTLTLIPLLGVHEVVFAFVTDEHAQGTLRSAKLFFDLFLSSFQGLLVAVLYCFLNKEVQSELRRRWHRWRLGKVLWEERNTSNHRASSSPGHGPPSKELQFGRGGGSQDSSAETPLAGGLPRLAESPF
The value called pKi is obtained by taking minus log10 of the concentration in mol/L.

Molecule	pKi
CC(C)CCC(c1ccc(C(=O)NCCC(=O)O)cc1)n1ncc2cc(-c3ccc(C(F)(F)F)cc3)ccc21 (stereo not shown) [compound 59]	6.81
Cc1cc(C(F)(F)F)ccc1-c1ccc2nn([C@@H](CC(C)C)c3ccc(C(=O)NCCC(=O)O)cc3)cc2c1C [Compound #156]	7.66
Cc1c(-c2ccc(Cl)cc2Cl)ccc2nn(C(CC(C)C)c3ccc(C(=O)NCCC(=O)O)cc3)cc12 (stereo not shown) [Compound #190]	7.60
CC(C)(C)c1ccc(-c2ccc3nn(C(CC4CCCCC4)c4ccc(C(=O)NCCC(=O)O)cc4)cc3c2)cc1 (stereo not shown) [Compound #228]	6.89
CC(C)CC(c1ccc(C(=O)NCCC(=O)O)nc1)n1ncc2cc(-c3cc4ccccc4s3)ccc21 (stereo not shown) [compound 48]	6.33

Please turn your attention to the following entry.
Task: Dear colleague, I am looking for the recorded pKi of the following molecule: CC(C)CC(c1ccc(C(=O)NCCC(=O)O)cc1)n1ncc2cc(-c3cc4ccccc4s3)ccc21 (stereo not shown) [compound 73]
Output: 7.21

----------
molecular target: human GCGR (Homo sapiens); assay: Cellular functional assay, cAMP readout (glucagon-stimulated cAMP, LANCE TR-FRET); details: HEK293 cells stably expressing full-length human GCGR; glucagon 100 pM; IC50 converted to Ki; read-out: Inhibition of cAMP Ki
Below, each entry is listed with its recorded Ki.
Your answer is read as nM, so omit the unit and give the number.

Reference set (5 entries):
Compound	Unit Symbol	Ki
CCOc1c(-c2ccc(C(F)(F)F)cc2C)ccc2nn(C(CC(C)C)c3ccc(C(=O)NCCC(=O)O)nc3)cc12 (stereo not shown) [Compound #207]	nM	17
COc1c(-c2ccc(Cl)cc2C)ccc2c1cnn2C(CC(C)C)c1ccc(C(=O)NCCC(=O)O)cc1 (stereo not shown) [Compound #99]	nM	145
CCCCCCC(c1ccc(C(=O)NCCC(=O)O)cc1)n1cc2cc(-c3ccc(Cl)cc3C)ccc2n1 (stereo not shown) [compound 204]	nM	21
Cc1cc(Cl)ccc1-c1ccc2c(cnn2C(CCC(F)(F)F)c2ccc(C(=O)NCCC(=O)O)cc2)c1 (stereo not shown) [Compound #40]	nM	490
O=C(O)CCNC(=O)c1ccc(C(CC2CCCC2)n2cc3cc(-c4ccc(C(F)(F)F)cc4)ccc3n2)cn1 (stereo not shown) [compound 188]	nM	165

Task: Quick one: Ki for O=C(O)CCNC(=O)c1ccc(C(CC2CCCCC2)n2ncc3cc(-c4ccc(C(F)(F)F)cc4)ccc32)cn1 (stereo not shown) [compound 255] ?
Output: 550

Task: What does the record list as Ki for O=C(O)CCNC(=O)c1ccc(C(CC2CCCC2)n2ncc3cc(-c4ccc(C(F)(F)F)cc4)ccc32)cc1 (stereo not shown) [compound 208] ?
Output: 175

----------
List of Ki values.
target: human GCGR (Homo sapiens, UniProt P47871); assay: Cellular functional assay, cAMP readout (glucagon-stimulated cAMP, LANCE TR-FRET); settings: HEK293 cells stably expressing full-length human GCGR; glucagon 100 pM; IC50 converted to Ki; read-out: Inhibition of cAMP Ki
Quick reminder: number only, in nM, skip the unit.

Compound	Unit Symbol	Value Measured
CCCCCCC(c1ccc(C(=O)NCCC(=O)O)cc1)n1ncc2cc(-c3ccc(C(F)(F)F)cc3)ccc21 (stereo not shown)	nM	155
Cc1cc(Cl)ccc1-c1ccc2nn(C(CC(C)(C)C)c3ccc(C(=O)NCCC(=O)O)cc3)cc2c1 (stereo not shown)	nM	42
CC(C)CC(c1ccc(C(=O)NCCC(=O)O)nc1)n1cc2cc(-c3ccc(C(F)(F)F)cc3Cl)c(Cl)cc2n1 (stereo not shown)	nM	70
CC(C)CCC(c1ccc(C(=O)NCCC(=O)O)cc1)n1cc2cc(-c3ccc(C(C)(C)C)cc3)ccc2n1 (stereo not shown)	nM	330
Cc1cc2c(cnn2C(CC(C)C)c2ccc(C(=O)NCCC(=O)O)cc2)cc1-c1cc2ccccc2s1 (stereo not shown)	nM	190

Task: Name the recorded Ki for Cc1ccc(-c2ccc3c(cnn3C(CC(C)C)c3ccc(C(=O)NCCC(=O)O)cc3)c2C)c(Cl)c1 (stereo not shown) .
Output: 800

Task: Report Ki for CCCCCCC(c1ccc(C(=O)NCCC(=O)O)cc1)n1cc2cc(-c3ccc(C(C)(C)C)cc3)ccc2n1 (stereo not shown) please.
Output: 136
